# assay_notes: qHTS of pediatric cancer cell lines to identify multiple opportunities for drug repurposing: Confirmatory screen for MG 63 (6-TG R) cells (AID 1347119); also: potency is read from the fitted curve at half-maximal effect; nearly all actives have a fitted effect of over 55% in size
# condition_details: MG-63 (6-TG resistant) osteosarcoma viability; series mostly up to 45.9 µM
Inconclusive results are not listed. Active and inactive are the calls of the source. Calls follow the shape of the dose curve; as a rule, active = well fitted cell-killing curve with a large enough effect; inconclusive = small, poorly fitted or top-dose-only effect, or effect the other way; inactive = no such curve, though single readings can be large or run the other way.
# Potency per record follows

Lookup result for `C[C@@H]1CC[C@@]2(OC1)O[C@H]1C[C@H]3[C@@H]4CC=C5C[C@@H](O[C@@H]6O[C@H](CO)[C@@H](O[C@@H]7O[C@@H](C)[C@H](O)[C@@H](O)[C@@H]7O)[C@H](O)[C@@H]6O[C@@H]6O[C@@H](C)[C@H](O)[C@@H](O)[C@@H]6O)CC[C@]5(C)[C@@H]4CC[C@]3(C)[C@@H]1[C@H]2C` ; measured Potency: 2610 nM (active)

Lookup result for `C[C@@H]1O[C@@H](O[C@@H]2C=C3CC[C@@H]4[C@@H](CC[C@]5(C)[C@H](c6ccc(=O)oc6)CC[C@@]45O)[C@@]3(C)CC2)[C@H](O)[C@H](O)[C@H]1O` ; measured Potency: 7.4 nM (active)

Lookup result for `COc1ccc(C(=O)c2c(C)n(CCN3CCOCC3)c3cc(I)ccc23)cc1` ; measured Potency: 14700 nM (active)

###

# Test system: TAB109
# assay_notes: qHTS profiling for inhibitors of Plasmodium falciparum proliferation (AID 504749); also: nearly all actives have a fitted effect of over 60% in size
# condition_details: P. falciparum in erythrocytes, SYBR Green DNA, 72 h; series mostly up to 28.7 µM
Results filed as inconclusive are left out. Activity calls are given as the source filed them. Calls follow the shape of the dose curve; as a rule, active = well fitted inhibition curve with a large enough effect; inconclusive = small, poorly fitted or top-dose-only effect; inactive = flat fitted curve, though single readings scatter.
Entry note: the call must match one of 1 for active, 0 for inactive

Previously resolved entries follow.
compound: NC(=O)CN1CC(O)CC1=O (stereo not given)
class_name: 0

compound: Cc1ccc(Cl)c(O)c1
class_name: 0

compound: CCCCCCCCCC(CC)c1ccc(S(=O)(=O)O)cc1 (stereo not given)
class_name: 0

compound: O=C(O)C(Cl)Cl
class_name: 0

What did this assay record as the result for `O=C(O)COc1ccccc1` ?
0

What did this assay record as the result for `CC(=O)[O][Hg][c]1ccccc1` ?
1

What did this assay record as the result for `CCCN1CCC[C@H](c2cccc(O)c2)C1` ?
0

What did this assay record as the result for `Cc1cc(O)ccc1Cl` ?
0

What did this assay record as the result for `O=[N+]([O-])c1ccc([As](=O)(O)O)cc1` ?
1

What did this assay record as the result for `C1CCC(NC2CCCCC2)CC1` ?
0

###

# assay_notes: Quantitative High-Throughput drug screen in 47 multiple myeloma cell lines against the NCATS MIPE library collection: OPM2_DSMZ cell viability assay (AID 1919872); also: nearly all actives have a fitted effect of over 30% in size
# condition_details: OPM2 myeloma viability, CellTiter-Glo ATP luminescence, 48 h; series mostly up to 45.8 µM
Records with an inconclusive call do not appear. Calls of active or inactive are those of the source. Calls come from the whole dose curve; as a rule, active = well fitted cell-killing curve with a large enough effect; inconclusive = small, poorly fitted or top-dose-only effect, or effect the other way; inactive = no such curve, though single readings can be large or run the other way.
Entry note: the call must match one of active, inactive

Previously resolved entries follow.
compound: CSCC[C@@H](NC(=O)[C@@H](Cc1ccccc1)NC(=O)CNC(=O)CNC(=O)[C@@H](N)Cc1ccc(O)cc1)C(=O)O
class_name: inactive
//
compound: CCN1CCN(C(=O)Cc2ccc(Nc3ncc(F)c(Nc4ccc(C(=O)Nc5ccccc5Cl)cc4)n3)cc2)CC1
class_name: active
//
compound: C=C1C[C@H]2[C@H]3CCC(=O)[C@@]3(C)CC[C@@H]2[C@@]2(C)C=CC(=O)C=C12
class_name: inactive
//
compound: COC(=O)[C@@H](N)CCCN=C(N)N[N+](=O)[O-]
class_name: inactive
//
compound: CCCN1CCO[C@@H]2c3cc(O)ccc3OC[C@@H]21
class_name: inactive

Now examine the next entry.
What did this assay record as the result for `CC[C@@]1(O)C(=O)OCc2c1cc1n(c2=O)Cc2cc3ccccc3nc2-1` ?
active

###

# Tested on: CP260
# assay_notes: qHTS profiling for inhibitors of Plasmodium falciparum proliferation (AID 504749); also: nearly all actives have a fitted effect of over 60% in size
# condition_details: P. falciparum in erythrocytes, SYBR Green DNA, 72 h; series mostly up to 28.7 µM
Records with an inconclusive call do not appear. Calls of active or inactive are those of the source. Calls come from the whole dose curve; as a rule, active = well fitted inhibition curve with a large enough effect; inconclusive = small, poorly fitted or top-dose-only effect; inactive = flat fitted curve, though single readings scatter.
Entry note: the call must match one of active, inactive

Previously resolved entries follow.
compound: C[C@]12CCC(=O)C(O)=C1CC[C@@H]1[C@H]3CCC(=O)[C@@]3(C)CC[C@@H]12
class_name: inactive
//
compound: CCCCCCCCCC(CC)c1ccc(S(=O)(=O)O)cc1 (configuration not stated)
class_name: inactive
//
compound: NC1=NC(=O)N2CC12 (configuration not stated)
class_name: active

What did this assay record as the result for `COC(=O)[C@@H](N)CCCN=C(N)N[N+](=O)[O-]` ?
inactive

What did this assay record as the result for C#CC1(O)CCC2C3CCC4=CC(=O)CCC4(C)C3CCC21C (configuration not stated) ?
inactive

What did this assay record as the result for `CC(=O)OCC1=C(C(=O)O)N2C(=O)[C@@H](N)[C@@H]2SC1` ?
inactive

What did this assay record as the result for NC(=O)CN1CC(O)CC1=O (configuration not stated) ?
inactive

What did this assay record as the result for `O=C(O)COc1ccccc1` ?
inactive

###

# assay_notes: qHTS of pediatric cancer cell lines to identify multiple opportunities for drug repurposing: Primary screen for BT-37 cells (AID 1347094)
# condition_details: BT-37 viability, CellTiter-Glo luminescence, 48 h; series mostly up to 57.3 µM
Records with an inconclusive call do not appear. Active and inactive are the calls of the source. Calls follow the shape of the dose curve; as a rule, active = well fitted cell-killing curve with a large enough effect; inconclusive = small, poorly fitted or top-dose-only effect; inactive = flat fitted curve, though single readings scatter.
Entry note: the call must match one of y = active, n = inactive

Previously resolved entries follow.
compound: CCOC(=O)c1cncn1[C@H](C)c1ccccc1
class_name: n

compound: CC(=O)Nc1ccc(OC[C@](C)(O)C(=O)Nc2ccc([N+](=O)[O-])c(C(F)(F)F)c2)cc1
class_name: n

compound: CC1(C)CC/C(=C/c2ccc(Cl)cc2)C1(O)Cn1cncn1 (stereo not drawn)
class_name: n

compound: CN[C@@H](C)[C@H](O)c1ccccc1
class_name: n

compound: C#C[C@]1(O)C=C[C@@H]2[C@@H]3CCC4=CC(=O)CC[C@@H]4[C@H]3CC[C@@]21CC
class_name: n

compound: COc1ccc(N(C(=O)Oc2c(C)cccc2C)c2ccnc(Nc3ccc(N4CCN(C)CC4)cc3)n2)c(OC)c1
class_name: y

compound: COC[C@H]1OC(=O)c2coc3c2[C@@]1(C)C1=C(C3=O)[C@@H]2CC[C@H](O)[C@@]2(C)C[C@@H]1OC(C)=O
class_name: y

compound: CC(C)[C@H]1C(=O)N[C@H](CO)Cc2c[nH]c3cccc(c23)N1C
class_name: n

compound: CC(C)Oc1cccc(NC(=O)c2ccccc2C(F)(F)F)c1
class_name: n

compound: O=[N+]([O-])/N=C1\NCCN1Cc1ccc(Cl)nc1
class_name: n

What did this assay record as the result for `Nc1ccc([N+](=O)[O-])cc1` ?
n

What did this assay record as the result for `O=S(=O)(O)C(F)(F)C(F)(F)C(F)(F)C(F)(F)C(F)(F)C(F)(F)C(F)(F)C(F)(F)F` ?
n

What did this assay record as the result for COc1ccc(CC2NCCc3cc(OC)c(OC)cc32)cc1OC (stereo not drawn) ?
n

What did this assay record as the result for CCOP(=O)(OCC)C(C)NC(=O)N(CCCl)N=O (stereo not drawn) ?
n

What did this assay record as the result for `Cc1cc(O)ccc1Cl` ?
n

What did this assay record as the result for Cc1c(N)nc([C@H](CC(N)=O)NC[C@@H](N)C(N)=O)nc1C(=O)N[C@H](C(=O)N[C@@H](C)[C@H](O)[C@@H](C)C(=O)N[C@@H](C(=O)NCCc1nc(-c2nc(C(=O)NCCC[S+](C)C)cs2)cs1)[C@@H](C)O)C(O[C@H]1O[C@H](CO)[C@H](O)[C@@H](O)[C@@H]1O[C@H]1O[C@H](CO)[C@@H](O)[C@H](OC(N)=O)[C@H]1O)c1cnc[nH]1 (stereo partly drawn) ?
y

What did this assay record as the result for `CC(=O)N(C)c1cccc(-c2ccnc3c(C(=O)c4cccs4)cnn23)c1` ?
n

What did this assay record as the result for CC(Cc1ccc(O)cc1)NCC(O)c1cc(O)cc(O)c1 (stereo not drawn) ?
n

###

# assay_notes: qHTS of pediatric cancer cell lines to identify multiple opportunities for drug repurposing: Primary screen for OHS-50 cells (AID 1347103); also: nearly all actives have a fitted effect of over 40% in size
# condition_details: OHS-50 osteosarcoma viability, CellTiter-Glo luminescence, 48 h; series mostly up to 57.3 µM
Inconclusive results are not listed. Calls of active or inactive are those of the source. Calls follow the shape of the dose curve; as a rule, active = well fitted cell-killing curve with a large enough effect; inconclusive = small, poorly fitted or top-dose-only effect; inactive = no such curve, though single readings can be large or run the other way.
Entry note: the call must match one of active, inactive

Previously resolved entries follow.
compound: CSCC[C@@H](NC(=O)[C@@H](Cc1ccccc1)NC(=O)CNC(=O)CNC(=O)[C@@H](N)Cc1ccc(O)cc1)C(=O)O
class_name: inactive

compound: NC1=NC(=O)N2CC12 (stereo not given)
class_name: inactive

compound: C[C@H]1CCCC=CC2C[C@H](O)C[C@@H]2[C@H](O)C=CC(=O)O1 (stereo not given in full)
class_name: active

compound: Cc1c(N)nc([C@H](CC(N)=O)NC[C@@H](N)C(N)=O)nc1C(=O)N[C@H](C(=O)N[C@@H](C)[C@H](O)[C@@H](C)C(=O)N[C@@H](C(=O)NCCc1nc(-c2nc(C(=O)NCCC[S+](C)C)cs2)cs1)[C@@H](C)O)C(O[C@H]1O[C@H](CO)[C@H](O)[C@@H](O)[C@@H]1O[C@H]1O[C@H](CO)[C@@H](O)[C@H](OC(N)=O)[C@H]1O)c1cnc[nH]1 (stereo not given in full)
class_name: active

Now examine the next entry.
What did this assay record as the result for `CS(=O)(=O)c1ccc(C(=O)C2C(=O)CCCC2=O)c([N+](=O)[O-])c1` ?
inactive
